- assayName: Plasma concentration in carrageenan-induced thermal hyperalgesia rat model at 1 mg/kg, po after 5 hrs post-carrageenan injection
- Assay type: ADME, organism-based
- Set-up: dose 1 mg/kg, route oral
measureName: concentration at 5 h (nM)
Expressed in nM, but write only the number.

Reported concentration at 5 h, compound FC(F)(F)c1ccc(Nc2ncnc3sc(Nc4c(Cl)cccc4Cl)nc23)cc1 : ____
58

---

Kindly supply the reported pIC50 values for the records listed here.
- system: Transient receptor potential cation channel subfamily V member 1 (Homo sapiens, UniProt Q8NER1)
- Sequence (Q8NER1 whole entry): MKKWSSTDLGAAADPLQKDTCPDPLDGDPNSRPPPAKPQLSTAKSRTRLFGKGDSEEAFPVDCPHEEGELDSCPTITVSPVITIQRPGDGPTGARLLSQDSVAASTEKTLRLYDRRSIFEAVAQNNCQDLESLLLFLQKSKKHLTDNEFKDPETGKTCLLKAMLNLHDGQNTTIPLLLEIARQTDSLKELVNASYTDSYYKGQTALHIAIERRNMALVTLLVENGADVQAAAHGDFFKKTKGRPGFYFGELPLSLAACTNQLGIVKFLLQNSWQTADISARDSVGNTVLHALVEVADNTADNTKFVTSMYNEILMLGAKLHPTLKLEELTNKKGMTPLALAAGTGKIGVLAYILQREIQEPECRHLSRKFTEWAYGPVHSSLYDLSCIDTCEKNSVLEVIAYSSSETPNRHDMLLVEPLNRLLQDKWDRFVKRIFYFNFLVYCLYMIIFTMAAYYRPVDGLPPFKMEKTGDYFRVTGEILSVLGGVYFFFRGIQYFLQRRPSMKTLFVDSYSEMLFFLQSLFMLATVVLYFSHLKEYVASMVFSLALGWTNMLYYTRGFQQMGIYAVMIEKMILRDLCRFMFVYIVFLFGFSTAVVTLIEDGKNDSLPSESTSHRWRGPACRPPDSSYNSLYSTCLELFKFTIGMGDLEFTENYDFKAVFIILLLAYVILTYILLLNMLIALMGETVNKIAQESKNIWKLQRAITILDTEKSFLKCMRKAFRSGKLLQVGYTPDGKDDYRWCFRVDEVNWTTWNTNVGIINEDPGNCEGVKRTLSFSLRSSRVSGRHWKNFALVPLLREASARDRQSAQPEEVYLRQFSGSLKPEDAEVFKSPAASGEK
- assayName: Antagonist activity at human TRPV1 expressed in HEK293 cells assessed as inhibition of capsaicin-induced calcium flux
- Type: functional, cell-based
Recall that pIC50 is obtained by taking minus log10 of the concentration measured in molar.

Reported pIC50, compound N#Cc1cc(Cl)c(Nc2nc3c(Nc4ccc(C(F)(F)F)cc4)ncnc3s2)c(Cl)c1 : ____
7.02

Now give it for Cc1ccc(Nc2ncnc3sc(Nc4c(Cl)cccc4Cl)nc23)cc1 too.
7.48

Now give it for CS(=O)(=O)c1ccccc1Nc1nc2c(Nc3ccc(C(F)(F)F)cc3)ncnc2s1 too.
6.63

Now give it for NC(=O)c1cc(Cl)c(Nc2nc3c(Nc4ccc(C(F)(F)F)cc4)ncnc3s2)c(Cl)c1 too.
7.16

Now give it for FC(F)(F)c1ccc(Nc2ncnc3sc(Nc4c(Cl)cccc4Cl)nc23)cc1Cl too.
7.68

---

- assayName: Cmax in fasted Sprague-Dawley rat at 2 mg/kg, po
- Format: ADME, organism-based
- Set-up: dose 2 mg/kg, route oral
- setupConditions: in vivo
Kindly supply the reported Cmax values for the records listed here.
Expressed in nM, but write only the number.

Reported Cmax, compound OCc1cc(Cl)c(Nc2nc3c(Nc4ccc(C(F)(F)F)cc4)ncnc3s2)c(Cl)c1 : ____
200

Now give it for FC(F)(F)c1ccc(Nc2nc(NCCN3CCOCC3)nc3sc(Nc4c(Cl)cccc4Cl)nc23)cc1 too.
70

---

- system: Transient receptor potential cation channel subfamily V member 1 (Rattus norvegicus, UniProt O35433)
- Sequence (O35433 whole entry): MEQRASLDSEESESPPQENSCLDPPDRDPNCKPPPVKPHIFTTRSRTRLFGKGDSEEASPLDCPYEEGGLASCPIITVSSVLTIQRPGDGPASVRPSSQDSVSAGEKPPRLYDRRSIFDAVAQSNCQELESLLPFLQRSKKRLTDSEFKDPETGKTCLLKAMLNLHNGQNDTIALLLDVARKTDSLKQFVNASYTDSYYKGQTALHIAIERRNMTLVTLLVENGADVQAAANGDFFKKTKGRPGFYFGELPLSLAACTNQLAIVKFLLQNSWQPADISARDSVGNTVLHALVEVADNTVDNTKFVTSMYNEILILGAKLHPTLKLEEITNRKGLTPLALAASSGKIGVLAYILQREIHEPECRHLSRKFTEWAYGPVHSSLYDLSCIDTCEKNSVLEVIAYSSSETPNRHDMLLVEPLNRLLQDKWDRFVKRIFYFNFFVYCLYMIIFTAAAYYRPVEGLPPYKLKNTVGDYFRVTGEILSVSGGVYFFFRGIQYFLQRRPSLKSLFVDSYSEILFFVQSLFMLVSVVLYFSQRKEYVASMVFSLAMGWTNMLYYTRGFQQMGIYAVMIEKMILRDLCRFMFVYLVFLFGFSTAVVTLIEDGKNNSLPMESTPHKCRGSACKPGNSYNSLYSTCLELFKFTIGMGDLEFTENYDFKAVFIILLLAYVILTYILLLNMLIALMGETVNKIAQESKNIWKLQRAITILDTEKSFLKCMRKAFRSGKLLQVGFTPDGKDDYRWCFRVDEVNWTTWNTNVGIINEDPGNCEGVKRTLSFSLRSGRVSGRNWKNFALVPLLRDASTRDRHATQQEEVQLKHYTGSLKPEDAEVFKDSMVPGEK
- assayName: Antagonist activity at rat TRPV1 expressed in HEK293 cells assessed as inhibition of capsaicin-induced calcium flux
- Assay type: functional, cell-based
pIC50: −log10 of the molar value.
# cutoff 8 applies to pIC50; >= gives condition met, < gives condition not met

Answer whether pIC50 of CC(C)(C)c1ccc(Oc2ncnc3sc(Nc4c(Cl)cccc4Cl)nc23)cc1 is greater than or equal to 8.
condition not met

Now give it for Cc1cccc(Cl)c1Nc1nc2c(Nc3ccc(C(F)(F)F)cc3)ncnc2s1 too.
condition met

Now give it for OCc1cc(Cl)c(Nc2nc3c(Nc4ccc(C(F)(F)F)cc4)ncnc3s2)c(Cl)c1 too.
condition met

Now give it for CSc1nc(Nc2ccc(C(F)(F)F)cc2)c2nc(Nc3c(Cl)cccc3Cl)sc2n1 too.
condition not met

Now give it for FC(F)(F)c1cccc(Nc2ncnc3sc(Nc4c(Cl)cccc4Cl)nc23)c1 too.
condition not met

Now give it for CC(C)N1CCN(c2nc(Nc3ccc(C(F)(F)F)cc3)c3nc(Nc4c(Cl)cccc4Cl)sc3n2)CC1 too.
condition not met

Now give it for CS(=O)(=O)c1ccccc1Nc1nc2c(Nc3ccc(C(F)(F)F)cc3)ncnc2s1 too.
condition not met
